Below is a list of entries, each paired with its recorded pIC50 value.
System: KP-N-YN;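 also: growth inhibition of KP-N-YN cells, read out with a cell viability assay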
Experiment: cells
Assay type: functional, cell-based, Homo sapiens
Settings: Homo sapiens, KP-N-YN
Description: SANGER: Inhibition of human KP-N-YN cell growth in a cell viability assay.
Scale note: pIC50 = -log10(concentration in M).

O=C(O)c1ccc(-c2c[nH]c3ncc(-c4ccccc4)cc23)cc1C1CCCC1 : 4.80

Now examine the next entry.
Recorded pIC50 for Cc1cc([N+](=O)[O-])ccc1NS(=O)(=O)c1cc(Cl)ccc1Cl , please?
4.99

----------
Test system: MZ2-MEL
Experiment: cells
Format: functional, cell-based, Homo sapiens
Conditions: Homo sapiens, MZ2-MEL
Description: SANGER: Inhibition of human MZ2-MEL cell growth in a cell viability assay.
pIC50: −log10 of the molar value.
MEASURED ATTRIBUTE: pIC50

Worked set:
COc1cc(-c2nn([C@H]3CC[C@H](N4CCN(C(C)=O)CC4)CC3)c3ncnc(N)c23)ccc1NC(=O)c1cc2ccccc2n1C : < 5.29
N[C@@H](CSC(c1ccccc1)(c1ccccc1)c1ccccc1)C(=O)O [S-TRITYL-L-CYSTEINE] : < 5.29
COc1cccc2c1C(=O)c1c(O)c3c(c(O)c1C2=O)C[C@@](O)(C(=O)CO)C[C@@H]3O[C@H]1C[C@H](N)[C@H](O)[C@H](C)O1 [DOXORUBICIN] : 7.47

Now examine the next entry.
Recorded pIC50 for CN(C)C(=N)NC(=N)N [METFORMIN] , please?
< 1.70

----------
Below is a list of entries, each paired with its recorded pIC50 value.
System: AN3-CA;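 also: growth inhibition of human AN3-CA cells measured by a cell viability assay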
Assay: cells
Type: functional, cell-based, Homo sapiens
Settings: Homo sapiens, AN3-CA
Description: SANGER: Inhibition of human AN3-CA cell growth in a cell viability assay.
Structures can show the parent of a compound that is named as a salt.
Scale note: pIC50 = -log10(concentration in M).

Worked set:
COC1=CC(c2cc3ccccc3[nH]2)=N/C1=C\c1[nH]c(C)cc1C [OBATOCLAX MESYLATE] : 6.81
Cc1cc([N+](=O)[O-])ccc1NS(=O)(=O)c1cc(Cl)ccc1Cl : 5.97

Recorded pIC50 for CO[C@H]1C[C@@H]2CC[C@@H](C)[C@@](O)(O2)C(=O)C(=O)N2CCCC[C@H]2C(=O)O[C@H]([C@H](C)C[C@@H]2CC[C@@H](OC(=O)C(C)(CO)CO)[C@H](OC)C2)CC(=O)[C@H](C)/C=C(\C)[C@@H](O)[C@@H](OC)C(=O)[C@H](C)C[C@H](C)/C=C/C=C/C=C/1C , please?
7.25

----------
Tested on: NCI-H1623;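 also: cell viability assay used as the read-out for growth inhibition of NCI-H1623 cells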
Assay: cells
Type: functional, cell-based, Homo sapiens
Settings: Homo sapiens, NCI-H1623
Description: SANGER: Inhibition of human NCI-H1623 cell growth in a cell viability assay.
pIC50: −log10 of the molar value.
MEASURED ATTRIBUTE: pIC50

Worked set:
C=C(c1ccc(C(=O)O)cc1)c1cc2c(cc1C)C(C)(C)CCC2(C)C [BEXAROTENE] : < 5.10
COc1cc2c(Nc3ccc(NC(=O)c4ccccc4)cc3)ncnc2cc1OCCCN1CCOCC1 : < 5.40
CC(C)CCN1c2nc(Nc3cc(F)c(O)c(F)c3)ncc2N(C)C(=O)C1C (configuration not stated) : < 5.30

Recorded pIC50 for CC(C)c1ccccc1Cc1cc(C(=O)Nc2ccc(S(=O)(=O)c3ccccc3C(C)(C)C)cc2)c(O)c(O)c1O , please?
6.23

Recorded pIC50 for CS(=O)(=O)c1ccc(C(=O)Nc2ccc(Cl)c(-c3ccccn3)c2)c(Cl)c1 [VISMODEGIB] , please?
< 5.00

Recorded pIC50 for CC1(C)CNc2cc(NC(=O)c3cccnc3NCc3ccncc3)ccc21 [MOTESANIB] , please?
< 5.70

Recorded pIC50 for O=C(O)c1ccc(-c2c[nH]c3ncc(-c4ccccc4)cc23)cc1C1CCCC1 [GSK-650394] , please?
< 4.80

----------
Tested on: GR-ST
Experiment: cells
Format: functional, cell-based, Homo sapiens
Details: Homo sapiens, GR-ST
Description: SANGER: Inhibition of human GR-ST cell growth in a cell viability assay.
MEASURED ATTRIBUTE: IC50

CCC/C=C/C=C/C(=O)O[C@H]1/C(=C/C(=O)OC)C[C@H]2C[C@H]([C@@H](C)O)OC(=O)C[C@H](O)C[C@@H]3C[C@H](OC(C)=O)C(C)(C)[C@](O)(C[C@@H]4C/C(=C/C(=O)OC)C[C@H](/C=C/C(C)(C)[C@]1(O)O2)O4)O3 [BRYOSTATIN 1] : > 0.008 µM
CN(C)C(=N)NC(=N)N [METFORMIN] : > 20000 µM
Cc1ccc(-c2c(C(=O)CCl)n(CCCO)c3ncnc(N)c23)cc1 : > 4 µM

Recorded IC50 for COc1cc2c(Nc3ccc(NC(=O)c4ccccc4)cc3)ncnc2cc1OCCCN1CCOCC1 , please?
> 4 µM

Recorded IC50 for CCN(CC)CCNC(=O)c1c(C)[nH]c(/C=C2\C(=O)Nc3ccc(F)cc32)c1C [SUNITINIB] , please?
> 8 µM

Recorded IC50 for C#Cc1cccc(Nc2ncnc3cc(OCCOC)c(OCCOC)cc23)c1 [ERLOTINIB] , please?
> 2 µM

Recorded IC50 for COc1cc2ncn(-c3cc(OCc4ccccc4S(C)(=O)=O)c(C#N)s3)c2cc1OC [GSK-319347A] , please?
> 5 µM

----------
Tested on: KU-19-19
Experiment: cells
Assay type: functional, cell-based, Homo sapiens
Details: Homo sapiens, KU-19-19
Description: SANGER: Inhibition of human KU-19-19 cell growth in a cell viability assay.
MEASURED ATTRIBUTE: IC50

Recorded IC50 for CC(C)c1ccccc1Cc1cc(C(=O)Nc2ccc(S(=O)(=O)c3ccccc3C(C)(C)C)cc2)c(O)c(O)c1O , please?
0.44 µM

Recorded IC50 for CC(C)CCN1c2nc(Nc3cc(F)c(O)c(F)c3)ncc2N(C)C(=O)C1C (configuration not stated) , please?
3.6 µM

Recorded IC50 for C=C(c1ccc(C(=O)O)cc1)c1cc2c(cc1C)C(C)(C)CCC2(C)C , please?
> 8 µM

Recorded IC50 for CC1(C)CNc2cc(NC(=O)c3cccnc3NCc3ccncc3)ccc21 , please?
> 2 µM

Recorded IC50 for CN(C)C(=N)NC(=N)N , please?
9610 µM

Recorded IC50 for CCC/C=C/C=C/C(=O)O[C@H]1/C(=C/C(=O)OC)C[C@H]2C[C@H]([C@@H](C)O)OC(=O)C[C@H](O)C[C@@H]3C[C@H](OC(C)=O)C(C)(C)[C@](O)(C[C@@H]4C/C(=C/C(=O)OC)C[C@H](/C=C/C(C)(C)[C@]1(O)O2)O4)O3 , please?
> 0.008 µM

Recorded IC50 for O=C(O)c1ccc(-c2c[nH]c3ncc(-c4ccccc4)cc23)cc1C1CCCC1 , please?
> 16 µM

----------
Tested on: HuO9
Experiment: cells
Assay type: functional, cell-based, Homo sapiens
Conditions: huo9
Description: SANGER: Inhibition of human HuO9 cell growth in a cell viability assay.
MEASURED ATTRIBUTE: IC50 (µM)
Give just the number in µM; leave the unit off.

Recorded IC50 for CISPLATIN , please?
38.7

----------
Tested on: NCI-H1436;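 also: growth suppression of human NCI-H1436 cells, determined with a cell viability readout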
Assay: cells
Type: functional, cell-based, Homo sapiens
Conditions: Homo sapiens, NCI-H1436
Description: SANGER: Inhibition of human NCI-H1436 cell growth in a cell viability assay.
pIC50: −log10 of the molar value.
MEASURED ATTRIBUTE: pIC50

Worked set:
CC[C@H](CO)Nc1nc(NCc2ccccc2)c2ncn(C(C)C)c2n1 [SELICICLIB] : < 4.80
O=C(O)c1ccc(-c2c[nH]c3ncc(-c4ccccc4)cc23)cc1C1CCCC1 [GSK-650394] : < 4.80
CC(=O)O[C@H]1C(=O)[C@@]2(C)[C@H]([C@H](OC(=O)c3ccccc3)[C@]3(O)C[C@H](OC(=O)[C@H](O)[C@@H](NC(=O)c4ccccc4)c4ccccc4)C(C)=C1C3(C)C)[C@]1(OC(C)=O)CO[C@@H]1C[C@@H]2O [PACLITAXEL] : 7.91
CCC/C=C/C=C/C(=O)O[C@H]1/C(=C/C(=O)OC)C[C@H]2C[C@H]([C@@H](C)O)OC(=O)C[C@H](O)C[C@@H]3C[C@H](OC(C)=O)C(C)(C)[C@](O)(C[C@@H]4C/C(=C/C(=O)OC)C[C@H](/C=C/C(C)(C)[C@]1(O)O2)O4)O3 [BRYOSTATIN 1] : < 8.10
OCCCNc1cc(-c2ccnc(Nc3cccc(Cl)c3)n2)ccn1 : 6.60

Now examine the next entry.
Short answer please: pIC50, NCI-H1436, entry COc1cc2ncn(-c3cc(OCc4ccccc4S(C)(=O)=O)c(C#N)s3)c2cc1OC [GSK-319347A]
< 5.30

----------
Below is a list of entries, each paired with its recorded IC50 value.
Test system: HuO9
Test: cells
Format: functional, cell-based, Homo sapiens
Conditions: Homo sapiens, HuO9

CCN(CC)CCCCNc1ncc2cc(-c3cc(OC)cc(OC)c3)c(NC(=O)NC(C)(C)C)nc2n1 [PD-173074] : > 2 µM
CS(=O)(=O)c1ccc(C(=O)Nc2ccc(Cl)c(-c3ccccn3)c2)c(Cl)c1 [VISMODEGIB] : > 10 µM

Recorded IC50 for Nc1cccc2c1CN(C1CCC(=O)NC1=O)C2=O (stereo not drawn) [LENALIDOMIDE] , please?
> 5 µM
